Reported IC50 by item:
# Target entity: A*0301 (Homo sapiens, UniProt P04439)
# Construct: endogenous in cells
# Measurement notes: Purified HLA class I peptide binding assay (HLA-A*03)
Your answer is read as nM, so omit the unit and give the number.

Some compounds with recorded IC50:
{"Compound": "C[C@H](N)C(=O)N[C@@H](Cc1ccccc1)C(=O)N[C@H](C(=O)N[C@@H](Cc1ccccc1)C(=O)N[C@@H](CO)C(=O)N1CCC[C@H]1C(=O)N[C@H](C(=O)N[C@@H](Cc1ccc(O)cc1)C(=O)N[C@@H](CCCCN)C(=O)O)[C@@H](C)O)[C@@H](C)O [20.0130]", "IC50 [nM]": 42}
{"Compound": "CC[C@H](C)[C@H](NC(=O)[C@H](Cc1c[nH]c2ccccc12)NC(=O)[C@@H](NC(=O)CNC(=O)[C@H](Cc1ccccc1)NC(=O)[C@H](CO)NC(=O)[C@@H](N)C(C)C)C(C)C)C(=O)N[C@@H](CCCNC(=N)N)C(=O)O [Peptide 26.0023]", "IC50 [nM]": 2750}
{"Compound": "CC(C)C[C@H](NC(=O)[C@H](CS)NC(=O)[C@H](Cc1c[nH]cn1)NC(=O)[C@@H]1CCCN1C(=O)[C@H](Cc1ccccc1)NC(=O)[C@H](C)NC(=O)[C@@H](N)CCCNC(=N)N)C(=O)N[C@@H](C)C(=O)N[C@@H](Cc1ccccc1)C(=O)N[C@@H](CO)C(=O)N[C@@H](Cc1ccc(O)cc1)C(=O)O [Peptide 26.0550]", "IC50 [nM]": 92}
{"Compound": "CC[C@H](C)[C@H](NC(=O)[C@@H]1CCCN1C(=O)[C@H](CC(C)C)NC(=O)[C@@H](N)CC(C)C)C(=O)N[C@@H](Cc1ccccc1)C(=O)N[C@@H](Cc1ccccc1)C(=O)N[C@@H](CS)C(=O)N[C@@H](CC(C)C)C(=O)N[C@@H](Cc1c[nH]c2ccccc12)C(=O)N[C@H](C(=O)N[C@@H](Cc1ccc(O)cc1)C(=O)O)C(C)C [Peptide 26.0549]", "IC50 [nM]": 478}
{"Compound": "CC[C@H](C)[C@H](NC(=O)CNC(=O)[C@H](C)NC(=O)[C@H](CCCCN)NC(=O)[C@H](Cc1c[nH]c2ccccc12)NC(=O)[C@H](CC(C)C)NC(=O)[C@@H](NC(=O)[C@@H](N)Cc1c[nH]cn1)[C@@H](C)O)C(=O)N[C@@H](CC(C)C)C(=O)N[C@@H](Cc1ccc(O)cc1)C(=O)N[C@@H](CCCCN)C(=O)O [Peptide 1147.16]", "IC50 [nM]": 20}

C[C@@H](O)[C@H](NC(=O)[C@@H](N)Cc1ccccc1)C(=O)N[C@@H](Cc1ccccc1)C(=O)N[C@@H](CO)C(=O)N1CCC[C@H]1C(=O)N[C@H](C(=O)N[C@@H](Cc1ccc(O)cc1)C(=O)N[C@@H](CCCCN)C(=O)O)[C@@H](C)O [Peptide 26.0008] yielded IC50 of 193
